assay-method-text: Antibacterial activity against Salmonella enterica subsp. enterica serovar Choleraesuis ATCC 13312 incubated overnight by standard microtiter dilution method
Format: functional
Peptide text beside a SMILES is read from it.
This section presents compounds with their documented MIC values.
assay-metric: MIC (µg/mL)

compound="CC(C)C[C@H](NC(=O)[C@H](CCCCN)NC(=O)[C@H](CC(C)C)NC(=O)[C@H](CCCCN)NC(=O)[C@H](CS)NC(=O)CNC(=O)[C@H](CO)NC(=O)[C@H](CCCCN)NC(=O)[C@@H](NC(=O)[C@H](CS)NC(=O)[C@H](CCCCN)NC(=O)[C@H](CC(C)C)NC(=O)[C@H](CCCCN)NC(=O)[C@@H](N)CC(C)C)[C@@H](C)O)C(N)=O (H-LKLKCTKSGCKLKL-NH2)" test_value=1
compound="CC(C)C[C@H](NC(=O)[C@H](CCCCN)NC(=O)[C@H](CC(C)C)NC(=O)[C@H](CCCCN)NC(=O)[C@H](CC(C)C)NC(=O)[C@H](CCCCN)NC(=O)[C@H](CS)NC(=O)CNC(=O)[C@H](CO)NC(=O)[C@H](CCCCN)NC(=O)[C@@H](NC(=O)[C@H](CS)NC(=O)[C@H](CCCCN)NC(=O)[C@H](CC(C)C)NC(=O)[C@H](CCCCN)NC(=O)[C@H](CC(C)C)NC(=O)[C@H](CCCCN)NC(=O)[C@@H](N)CC(C)C)[C@@H](C)O)C(N)=O (H-LKLKLKCTKSGCKLKLKL-NH2)" test_value=4
compound="C[C@@H](O)[C@H](NC(=O)[C@H](CS)NC(=O)[C@H](CCCCN)NC(=O)[C@@H](N)Cc1c[nH]c2ccccc12)C(=O)N[C@@H](CCCCN)C(=O)N[C@@H](CO)C(=O)NCC(=O)N[C@@H](CS)C(=O)N[C@@H](CCCCN)C(=O)N[C@@H](Cc1c[nH]c2ccccc12)C(N)=O (H-WKCTKSGCKW-NH2)" test_value=8

====

assay-method-text: Hemolytic activity in human Red blood cells assessed as hemolysis at 128 ug/ml incubated for 1 hrs by absorbance based microplate reader analysis relative to control
Type: toxicity, cell-based, Erythrocyte
test-parameters: red blood cells (erythrocytes), at 128 µg/mL, read-out: Activity
Peptide text beside a SMILES is read from it.
assay-metric: hemolysis at 1 h, 128 ug/ml

compound="C[C@@H](O)[C@H](NC(=O)[C@H](CS)NC(=O)[C@H](CCCCN)NC(=O)[C@@H](N)Cc1c[nH]c2ccccc12)C(=O)N[C@@H](CCCCN)C(=O)N[C@@H](CO)C(=O)NCC(=O)N[C@@H](CS)C(=O)N[C@@H](CCCCN)C(=O)N[C@@H](Cc1c[nH]c2ccccc12)C(N)=O (H-WKCTKSGCKW-NH2)" test_value="< 10%"
compound="CC(C)[C@H](N)C(=O)N[C@@H](CCCCN)C(=O)N[C@H](C(=O)N[C@@H](CCCCN)C(=O)N[C@@H](CS)C(=O)N[C@H](C(=O)N[C@@H](CCCCN)C(=O)N[C@@H](CO)C(=O)NCC(=O)N[C@@H](CS)C(=O)N[C@@H](CCCCN)C(=O)N[C@H](C(=O)N[C@@H](CCCCN)C(=O)N[C@H](C(N)=O)C(C)C)C(C)C)[C@@H](C)O)C(C)C (H-VKVKCTKSGCKVKV-NH2)" test_value="< 10%"
compound="CC(C)C[C@H](NC(=O)[C@H](CCCCN)NC(=O)[C@H](CC(C)C)NC(=O)[C@H](CCCCN)NC(=O)[C@H](CC(C)C)NC(=O)[C@H](CCCCN)NC(=O)[C@H](CS)NC(=O)CNC(=O)[C@H](CO)NC(=O)[C@H](CCCCN)NC(=O)[C@@H](NC(=O)[C@H](CS)NC(=O)[C@H](CCCCN)NC(=O)[C@H](CC(C)C)NC(=O)[C@H](CCCCN)NC(=O)[C@H](CC(C)C)NC(=O)[C@H](CCCCN)NC(=O)[C@@H](N)CC(C)C)[C@@H](C)O)C(N)=O (H-LKLKLKCTKSGCKLKLKL-NH2)" test_value=16.4%
compound="CC(C)C[C@H](NC(=O)[C@H](CCCCN)NC(=O)[C@H](CS)NC(=O)CNC(=O)[C@H](CO)NC(=O)[C@H](CCCCN)NC(=O)[C@@H](NC(=O)[C@H](CS)NC(=O)[C@H](CCCCN)NC(=O)[C@@H](N)CC(C)C)[C@@H](C)O)C(N)=O (H-LKCTKSGCKL-NH2)" test_value="< 10%"
